Target: CGRP receptors in SK-N-MC cell membranes (Homo sapiens, UniProt O60894+Q16602)
Construct: receptors in SK-N-MC cell membranes; endogenous in cells
Sequence (Q16602 23-461): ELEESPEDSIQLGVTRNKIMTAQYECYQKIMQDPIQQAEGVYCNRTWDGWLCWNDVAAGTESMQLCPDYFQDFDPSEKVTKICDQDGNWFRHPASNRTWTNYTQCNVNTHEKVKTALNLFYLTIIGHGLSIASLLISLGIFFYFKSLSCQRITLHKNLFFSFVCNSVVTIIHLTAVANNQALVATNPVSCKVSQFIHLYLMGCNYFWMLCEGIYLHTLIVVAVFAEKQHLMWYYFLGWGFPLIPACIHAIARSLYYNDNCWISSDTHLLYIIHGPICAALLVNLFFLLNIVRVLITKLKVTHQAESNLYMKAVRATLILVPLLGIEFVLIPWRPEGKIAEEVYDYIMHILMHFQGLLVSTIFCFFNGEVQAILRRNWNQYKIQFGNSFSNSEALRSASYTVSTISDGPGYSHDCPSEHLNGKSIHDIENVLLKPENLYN
Sequence (O60894 27-148): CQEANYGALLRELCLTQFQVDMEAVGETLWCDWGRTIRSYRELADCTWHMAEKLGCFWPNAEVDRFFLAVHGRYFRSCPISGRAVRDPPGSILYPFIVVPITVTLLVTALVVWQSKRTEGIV
Assay: Native receptor binding assay (125I-CGRP, SK-N-MC cell membranes)
Conditions: 10 pM 125I-CGRP
pKi: −log10 of the molar value.
endpoint.name: pKi

Q: Any idea what pKi was measured for CC(C)(O)c1cnc2n1Cc1c(cc(Cl)c3[nH]ncc13)C[C@H]2NC(=O)c1ccc2c(c1)CC1(C2)C(=O)Nc2ncccc21 (stereo partly shown) ?
A: > 6.00

====

Target: recombinant human CL receptor/RAMP1 (Homo sapiens, UniProt O60894+Q16602)
Construct: expressed in transfected cells
Sequence (Q16602 23-461): as the sequence (Q16602 23-461) above
Sequence (O60894 27-148): as the sequence (O60894 27-148) above
Assay: Recombinant receptor functional assay (cAMP after human α-CGRP stimulation)
Assay type: cell-based
Details: HEK 293 cells, 0.3 nM human α-CGRP
From the text: RECOMBINANT RECEPTOR: Human CL receptor (Genbank accession number L76380) was subcloned into the expression vector pIREShyg2 (BD Biosciences Clontech) as a 5′NheI and 3′ PmeI fragment. Human RAMP I (Genbank accession number AJ001014) was subcloned into the expression vector pIRESpuro2 (BD Biosciences Clontech) as a 5′NheI and 3′NotI fragment. […]
pIC50: −log10 of the molar value.
endpoint.name: pIC50

Q: Any idea what pIC50 was measured for CC(C)(O)c1cnc2n1Cc1c(cc(Cl)c3[nH]ncc13)C[C@H]2NC(=O)c1ccc2c(c1)CC1(C2)C(=O)Nc2ncccc21 (stereo partly shown) [Example 4] ?
A: > 6.00
